From: paper PMC5402281

Test system: M. tuberculosis H37Rv in infected RAW 264.7 macrophages
experimental_protocol: Intracellular activity in M. tuberculosis-infected macrophages (CFU)
Format: cell-based, Mycobacterium tuberculosis
condition: 5 μM, 5 days of incubation
Marks after values point to notes of the source that are not given here.
Please provide measured Mean log CFU/well ± SEM for the entries that follow.

NNC(=O)c1ccncc1 = 2.4 ± 0.1***^+++ log CFU/well
Cc1ccccc1OCc1nc(-c2ccc(NC(=O)c3cccs3)cc2)no1 = 3.9 ± 0.1 log CFU/well
CCOC(=O)c1ccc2nc(C)cc(Nc3ccc(N4CCCCC4)cc3)c2c1 = 3.4 ± 0.1***^++ log CFU/well

Look up Mean log CFU/well ± SEM of "CO[C@H]1/C=C/O[C@@]2(C)Oc3c(C)c(O)c4c(O)c(c(/C=N/N5CCN(C)CC5)c(O)c4c3C2=O)NC(=O)/C(C)=C\C=C\[C@H](C)[C@H](O)[C@@H](C)[C@@H](O)[C@@H](C)[C@H](OC(C)=O)[C@@H]1C" and report it.
2.4 ± 0.1***^+++ log CFU/well
